Assignment: determine reported Ki for the given compounds.
Target System: AXL (Homo sapiens, UniProt P30530)
Sequence (P30530 26-894): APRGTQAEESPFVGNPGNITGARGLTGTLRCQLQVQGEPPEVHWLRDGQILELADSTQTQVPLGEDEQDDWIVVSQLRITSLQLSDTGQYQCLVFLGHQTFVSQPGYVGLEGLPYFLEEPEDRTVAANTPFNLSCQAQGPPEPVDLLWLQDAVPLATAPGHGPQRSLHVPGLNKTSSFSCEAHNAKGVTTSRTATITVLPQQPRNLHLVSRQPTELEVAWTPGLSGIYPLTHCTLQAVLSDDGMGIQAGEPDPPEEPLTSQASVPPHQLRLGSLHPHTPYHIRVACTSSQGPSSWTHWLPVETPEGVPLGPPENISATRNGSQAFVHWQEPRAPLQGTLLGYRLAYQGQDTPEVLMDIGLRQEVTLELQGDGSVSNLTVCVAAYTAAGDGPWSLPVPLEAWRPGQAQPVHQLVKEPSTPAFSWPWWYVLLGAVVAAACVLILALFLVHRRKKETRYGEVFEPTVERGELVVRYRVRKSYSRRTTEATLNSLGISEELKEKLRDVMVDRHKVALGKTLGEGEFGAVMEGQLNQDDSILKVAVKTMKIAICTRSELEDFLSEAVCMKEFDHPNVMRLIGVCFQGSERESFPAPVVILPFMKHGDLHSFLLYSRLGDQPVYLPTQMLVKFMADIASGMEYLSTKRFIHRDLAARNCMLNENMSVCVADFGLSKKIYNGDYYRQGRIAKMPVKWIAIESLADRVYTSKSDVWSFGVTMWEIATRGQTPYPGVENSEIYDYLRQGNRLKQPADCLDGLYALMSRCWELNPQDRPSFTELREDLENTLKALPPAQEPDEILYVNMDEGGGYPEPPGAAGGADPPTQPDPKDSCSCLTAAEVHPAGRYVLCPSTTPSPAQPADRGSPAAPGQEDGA

Any idea what its Ki is? The compound is CCCc1cc2c(N[C@H]3CC[C@H](N)CC3)c(-c3nccs3)cnc2[nH]1 100 to 1000 nM

What about this compound? CCCc1cc2c(N[C@H]3CC[C@H](O)CC3)c(C(=O)NCc3ccc(-n4ccnc4)cc3)cnc2[nH]1 100 to 1000 nM

What about this compound? CCC(C)c1cc2c(N[C@H]3CC[C@H](N)CC3)c(C(=O)Nc3ccc(F)cc3)cnc2[nH]1 (stereo partly shown) 1000 to 10000 nM

What about this compound? CC(O)c1cc2c(N[C@H]3CC[C@H](O)CC3)c(-c3ccc(CN4CCOCC4)cn3)cnc2[nH]1 (stereo partly shown) 1000 to 10000 nM

What about this compound? Cc1cc2c(N[C@H]3CC[C@H](N)CC3)c(C(=O)Nc3ccc(F)cc3)cnc2[nH]1 100 to 1000 nM

What about this compound? CCC(C)c1cc2c(N[C@H]3CC[C@H](O)CC3)c(C(=O)NC3CCN(C4=NCCCN4)CC3)cnc2[nH]1 (stereo partly shown) 1000 to 10000 nM

What about this compound? CCCc1cc2c(N[C@H]3CC[C@H](N)CC3)c(-c3cc(N)ncn3)cnc2[nH]1 100 to 1000 nM
